All values here come from patent US10004732B2.

- TARGET OR TEST SYSTEM: PI 3-kinase beta (Homo sapiens, UniProt P42338)
- EXPERIMENT SUMMARY: Kinase Glo Luminescent Kinase Assay (Kglo), assay B
- Type: biochemical
- RUN CONDITIONS: read-out: Assay B PI3Kβ IC50
- Sequence (P42338 whole entry): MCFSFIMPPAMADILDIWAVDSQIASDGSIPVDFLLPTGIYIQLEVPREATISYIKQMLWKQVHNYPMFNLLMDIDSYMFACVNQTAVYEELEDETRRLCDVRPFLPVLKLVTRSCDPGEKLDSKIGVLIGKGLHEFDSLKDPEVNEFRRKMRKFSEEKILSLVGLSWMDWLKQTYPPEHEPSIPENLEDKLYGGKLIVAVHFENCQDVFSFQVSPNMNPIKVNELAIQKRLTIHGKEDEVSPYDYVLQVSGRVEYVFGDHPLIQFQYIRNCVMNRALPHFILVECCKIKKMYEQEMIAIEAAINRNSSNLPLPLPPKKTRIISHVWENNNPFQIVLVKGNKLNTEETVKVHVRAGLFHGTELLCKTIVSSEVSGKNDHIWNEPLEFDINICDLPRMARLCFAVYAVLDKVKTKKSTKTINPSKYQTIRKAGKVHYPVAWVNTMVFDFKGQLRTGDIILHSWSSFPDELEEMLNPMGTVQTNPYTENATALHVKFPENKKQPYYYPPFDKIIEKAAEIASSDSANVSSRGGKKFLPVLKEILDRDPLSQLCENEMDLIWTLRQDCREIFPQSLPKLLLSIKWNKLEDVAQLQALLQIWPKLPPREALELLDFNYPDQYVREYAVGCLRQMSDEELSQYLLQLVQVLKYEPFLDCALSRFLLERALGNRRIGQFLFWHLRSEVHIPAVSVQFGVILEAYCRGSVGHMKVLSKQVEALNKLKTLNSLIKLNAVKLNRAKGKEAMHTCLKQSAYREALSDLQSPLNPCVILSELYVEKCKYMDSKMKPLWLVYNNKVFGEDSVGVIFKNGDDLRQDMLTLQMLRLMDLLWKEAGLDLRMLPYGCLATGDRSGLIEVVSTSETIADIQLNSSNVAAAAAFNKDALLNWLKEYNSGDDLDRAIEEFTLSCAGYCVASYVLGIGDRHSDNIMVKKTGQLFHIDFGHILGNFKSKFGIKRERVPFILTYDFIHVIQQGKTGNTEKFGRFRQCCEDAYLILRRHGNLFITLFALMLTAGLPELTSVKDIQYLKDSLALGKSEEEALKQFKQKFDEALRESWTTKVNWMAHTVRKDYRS
- Sequence (P27986 461-568 partner): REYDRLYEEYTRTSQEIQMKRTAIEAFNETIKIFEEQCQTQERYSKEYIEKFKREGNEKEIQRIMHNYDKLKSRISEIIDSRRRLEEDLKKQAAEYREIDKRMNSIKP
Counter-ions that a name gives are not always drawn.
MEASUREMENT KIND: IC50 (nM)
Write the value in nM as a bare number.

Prompt: Which IC50 is listed for Cc1cc(-c2nc(-c3cc(S(=O)(=O)NC[C@H]4CCC[C@@H](CN)C4)ccc3C)cnc2N)ccn1 [Example 129.42] ?
Completion: 6600

Prompt: Now consider CCN1CCC[C@@H]1CNS(=O)(=O)c1ccc(C)c(-c2cnc(N)c(-c3cn(C)nc3C)n2)c1 [Example 27, hydrochloride] .
Completion: 870

Prompt: Now consider Cc1ccc(S(=O)(=O)NCCC(C)(C)O)cc1-c1cnc(N)c(-c2c[nH]nc2C)n1 [Example 119.22] .
Completion: 1930

Prompt: Now consider Cc1ncc(-c2nc(-c3cc(S(=O)(=O)NCC4(C)COC4)ccc3C)cnc2N)s1 [Example 120] .
Completion: 1000

Prompt: Now consider Cc1ccc(S(=O)(=O)NCCC(C)(C)O)cc1-c1cnc(N)c(-c2csc(CN3CCOCC3)c2)n1 [Example 30] .
Completion: 5210

Prompt: Now consider Cc1ncc(-c2nc(-c3cc(S(=O)(=O)NCC(C)(C)O)ccc3C)cnc2N)o1 [Example 126] .
Completion: 3100

Prompt: Now consider Cc1cc(-c2nc(-c3cc(S(=O)(=O)NCCC(C)(C)O)ccc3C)cnc2N)ccn1 [Example 119.28] .
Completion: 7380

Prompt: Now consider Cc1ccc(S(=O)(=O)NCC2CCCOC2)cc1-c1cnc(N)c(-n2cncn2)n1 (stereo not shown) [Example 127.19] .
Completion: 1300

Prompt: Now consider Cc1ccc(S(=O)(=O)NOCC(C)C)cc1-c1cnc(N)c(-n2cncn2)n1 [Example 112.4] .
Completion: 560

Prompt: Now consider Cc1ccc(S(=O)(=O)NC2CC3(CC(O)C3)C2)cc1-c1cnc(N)c(-c2cn(C)nc2C)n1 (stereo not shown) [Example 74] .
Completion: 830

Prompt: Now consider Cc1cc(F)c(S(=O)(=O)NCCC(C)(C)O)cc1-c1cnc(N)c(-c2cnn(C)c2)n1 [Example 115] .
Completion: 2350

Prompt: Now consider Cc1ccc(S(=O)(=O)NCCC(C)(C)O)cc1-c1cnc(N)c(-c2cn(C)nc2C)n1 [Example 12] .
Completion: 2650

Prompt: Now consider CCn1cc(-c2nc(-c3cc(S(=O)(=O)NCCC(C)(C)O)ccc3C)cnc2N)cn1 [Example 119.34] .
Completion: 3510

====

- TARGET OR TEST SYSTEM: PI 3-kinase delta (Homo sapiens)
- EXPERIMENT SUMMARY: TR-FRET Adapta assay, assay F
- RUN CONDITIONS: read-out: Assay F PI3Kδ IC50
- Sequence (O00329 whole entry): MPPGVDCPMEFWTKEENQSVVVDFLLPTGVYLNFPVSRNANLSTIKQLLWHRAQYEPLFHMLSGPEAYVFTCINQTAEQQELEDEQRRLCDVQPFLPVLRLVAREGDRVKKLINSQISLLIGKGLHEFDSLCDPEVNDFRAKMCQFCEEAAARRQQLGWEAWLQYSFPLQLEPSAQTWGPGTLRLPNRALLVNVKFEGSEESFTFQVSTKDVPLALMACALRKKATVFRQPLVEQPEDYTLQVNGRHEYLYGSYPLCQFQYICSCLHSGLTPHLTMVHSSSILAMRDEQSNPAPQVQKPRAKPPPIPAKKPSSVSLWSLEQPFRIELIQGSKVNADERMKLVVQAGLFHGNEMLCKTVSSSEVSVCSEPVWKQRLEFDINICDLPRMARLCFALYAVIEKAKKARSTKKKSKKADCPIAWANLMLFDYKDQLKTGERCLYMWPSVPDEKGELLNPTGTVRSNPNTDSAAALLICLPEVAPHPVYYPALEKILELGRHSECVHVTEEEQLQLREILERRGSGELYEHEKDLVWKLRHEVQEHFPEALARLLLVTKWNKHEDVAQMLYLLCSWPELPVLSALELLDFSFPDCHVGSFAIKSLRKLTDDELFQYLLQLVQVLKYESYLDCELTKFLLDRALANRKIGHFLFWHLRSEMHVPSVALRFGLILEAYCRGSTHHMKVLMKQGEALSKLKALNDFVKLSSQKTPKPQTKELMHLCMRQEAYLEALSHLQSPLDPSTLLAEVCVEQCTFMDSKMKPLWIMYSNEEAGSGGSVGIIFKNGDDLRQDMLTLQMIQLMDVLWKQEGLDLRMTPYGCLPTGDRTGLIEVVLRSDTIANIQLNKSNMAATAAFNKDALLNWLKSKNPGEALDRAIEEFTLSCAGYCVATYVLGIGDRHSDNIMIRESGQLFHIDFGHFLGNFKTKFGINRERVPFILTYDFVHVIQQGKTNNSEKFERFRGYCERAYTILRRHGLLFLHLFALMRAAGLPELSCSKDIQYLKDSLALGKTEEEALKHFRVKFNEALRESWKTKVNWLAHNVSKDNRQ
- Sequence (P27986 461-568 partner): as the sequence (P27986 461-568 partner) above
MEASUREMENT KIND: IC50 (nM)
Write the value in nM as a bare number.

Prompt: Which IC50 is listed for Cc1ccc(S(=O)(=O)NC2CCC(CO)CC2)cc1-c1cnc(N)c(-n2cncn2)n1 (centres unmarked) [Example 127.6] ?
Completion: 1500

Prompt: Now consider CCc1noc(-c2nc(-c3cc(S(=O)(=O)N4CCC(CO)CC4)ccc3C)cnc2N)n1 [Example 141] .
Completion: 340

Prompt: Now consider Cc1ccc(S(=O)(=O)NCCC(C)(C)O)cc1-c1cnc(N)c(-n2cncn2)n1 [Example 64] .
Completion: 250

Prompt: Now consider Cc1ccc(S(=O)(=O)NCCC(C)(C)O)cc1-c1cnc(N)c(-c2ccncc2)n1 [Example 119.27] .
Completion: 120

Prompt: Now consider Cc1ccc(S(=O)(=O)NOCC(C)(C)O)cc1-c1cnc(N)c(-n2cncn2)n1 [Example 31] .
Completion: 120

Prompt: Now consider Cc1cc(-c2nc(-c3cc(S(=O)(=O)NCCC(C)(C)O)ccc3C)cnc2N)ccn1 [Example 119.28] .
Completion: 190

Prompt: Now consider Cc1ccc(S(=O)(=O)N[C@H]2CCOC2)cc1-c1cnc(N)c(-n2cncn2)n1 [Example 127.21] .
Completion: 1200

Prompt: Now consider Cc1ccc(S(=O)(=O)NCCC(C)(C)O)cc1-c1cnc(N)c(-n2cccn2)n1 [Example 62] .
Completion: 210

====

- TARGET OR TEST SYSTEM: PI 3-kinase gamma (Homo sapiens, UniProt P48736)
- Sequence (P48736 whole entry): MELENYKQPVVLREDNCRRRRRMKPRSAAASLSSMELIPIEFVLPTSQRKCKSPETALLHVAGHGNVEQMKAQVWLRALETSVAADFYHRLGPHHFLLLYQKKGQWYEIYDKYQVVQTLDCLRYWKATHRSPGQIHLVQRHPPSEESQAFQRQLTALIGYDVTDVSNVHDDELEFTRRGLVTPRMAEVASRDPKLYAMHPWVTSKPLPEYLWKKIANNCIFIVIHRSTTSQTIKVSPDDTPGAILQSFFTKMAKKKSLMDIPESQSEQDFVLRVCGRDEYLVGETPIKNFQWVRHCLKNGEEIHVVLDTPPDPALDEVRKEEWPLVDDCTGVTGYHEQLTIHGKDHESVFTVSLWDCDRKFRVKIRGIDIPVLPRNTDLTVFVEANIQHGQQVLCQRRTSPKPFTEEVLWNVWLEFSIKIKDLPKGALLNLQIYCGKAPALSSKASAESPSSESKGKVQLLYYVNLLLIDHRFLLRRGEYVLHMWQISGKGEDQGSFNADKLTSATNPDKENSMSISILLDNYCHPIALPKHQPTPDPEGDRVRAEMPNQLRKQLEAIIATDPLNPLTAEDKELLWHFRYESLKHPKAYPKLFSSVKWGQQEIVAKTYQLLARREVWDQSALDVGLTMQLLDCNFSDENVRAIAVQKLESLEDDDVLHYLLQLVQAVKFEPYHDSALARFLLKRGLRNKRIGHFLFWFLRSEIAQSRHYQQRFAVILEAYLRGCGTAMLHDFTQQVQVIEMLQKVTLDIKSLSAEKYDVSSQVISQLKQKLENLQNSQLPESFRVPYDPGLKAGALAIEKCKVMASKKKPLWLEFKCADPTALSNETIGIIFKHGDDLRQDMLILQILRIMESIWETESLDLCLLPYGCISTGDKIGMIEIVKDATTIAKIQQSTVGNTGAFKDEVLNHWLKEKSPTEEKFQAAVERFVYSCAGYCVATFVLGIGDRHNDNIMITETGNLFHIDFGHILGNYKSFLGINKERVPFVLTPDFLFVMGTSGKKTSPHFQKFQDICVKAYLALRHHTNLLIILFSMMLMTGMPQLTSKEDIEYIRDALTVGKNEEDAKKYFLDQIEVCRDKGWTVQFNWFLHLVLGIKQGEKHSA
- EXPERIMENT SUMMARY: TR-FRET Adapta assay, assay E
- Format: biochemical
- RUN CONDITIONS: read-out: Assay E PI3Kγ IC50
For each record, write down the corresponding pIC50.
Lab note — pIC50 values are minus log10 of concentrations in M.

Prompt: Which pIC50 is listed for `COc1ncccc1-c1nc(-c2cc(S(=O)(=O)NCCC(C)(C)O)ccc2C)cnc1N` ?
Completion: 5.51

Prompt: Now consider `Cc1cc(-c2nc(-c3cc(S(=O)(=O)NCC(C)(C)N4CCOCC4)ccc3C)cnc2N)ccn1` .
Completion: 6.85

Prompt: Now consider `Cc1cc(-c2nc(-c3cc(S(=O)(=O)NCCC(C)(C)O)ccc3C)cnc2N)ccn1` .
Completion: 7.31

Prompt: Now consider Cc1ncc(-c2nc(-c3cc(S(=O)(=O)NC[C@H]4CCCO4)ccc3C)cnc2N)s1 (single isomer, unassigned) [Example 45.6a] .
Completion: 8.05

Prompt: Now consider `Cc1cc(-c2nc(-c3cc(S(=O)(=O)NCC4(O)CCCCC4)ccc3C)cnc2N)ccn1` .
Completion: 7.16

Prompt: Now consider `Cc1ccc(S(=O)(=O)NCCC(C)(C)O)cc1-c1cnc(N)c(-c2cscn2)n1` .
Completion: 7.42

Prompt: Now consider `Cc1ccc(S(=O)(=O)N[C@H]2CCOC2)cc1-c1cnc(N)c(-n2cncn2)n1` .
Completion: 7.01

====

For each record, write down the corresponding IC50.
- TARGET OR TEST SYSTEM: PI 3-kinase beta (Homo sapiens)
- EXPERIMENT SUMMARY: Cellular assay I1, p-Akt (S473) in Rat-1 cells, Surefire format
- Assay type: cell-based
- RUN CONDITIONS: non-asterisked data: version I1 (Surefire format), Rat-1 cells; read-out: Assay I PI3Kβ IC50
- Sequence (P42338 whole entry): as the sequence (P42338 whole entry) above
- Sequence (Q63787 whole entry partner): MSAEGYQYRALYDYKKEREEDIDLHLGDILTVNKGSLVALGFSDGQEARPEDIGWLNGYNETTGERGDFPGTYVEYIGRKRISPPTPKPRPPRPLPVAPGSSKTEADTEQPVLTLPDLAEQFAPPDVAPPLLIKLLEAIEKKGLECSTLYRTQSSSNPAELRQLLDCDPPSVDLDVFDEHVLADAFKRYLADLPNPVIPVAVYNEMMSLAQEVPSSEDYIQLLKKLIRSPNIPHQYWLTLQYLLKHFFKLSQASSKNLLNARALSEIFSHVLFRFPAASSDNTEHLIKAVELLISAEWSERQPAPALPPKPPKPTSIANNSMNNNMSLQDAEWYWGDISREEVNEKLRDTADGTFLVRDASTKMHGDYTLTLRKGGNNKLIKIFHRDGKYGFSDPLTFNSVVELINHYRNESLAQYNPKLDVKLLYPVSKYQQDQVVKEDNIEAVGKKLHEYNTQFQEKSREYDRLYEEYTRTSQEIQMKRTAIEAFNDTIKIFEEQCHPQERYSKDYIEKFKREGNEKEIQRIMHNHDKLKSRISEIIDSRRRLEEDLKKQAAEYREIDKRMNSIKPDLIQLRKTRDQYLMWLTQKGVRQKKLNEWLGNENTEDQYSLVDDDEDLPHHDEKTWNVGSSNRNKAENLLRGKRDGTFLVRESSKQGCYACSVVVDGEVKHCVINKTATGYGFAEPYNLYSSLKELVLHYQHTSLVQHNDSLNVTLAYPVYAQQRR

Prompt: Which IC50 is listed for `Cc1ccc(S(=O)(=O)NCC(C)(C)O)cc1-c1cnc(N)c(-n2cnc(C3CC3)n2)n1` ?
Completion: > 10 µM

Prompt: Now consider Cc1ccc(S(=O)(=O)NCC2CNCCO2)cc1-c1cnc(N)c(-c2cn(C)nc2C)n1 (stereo not shown) .
Completion: > 10 µM

Prompt: Now consider `CCCc1noc(-c2nc(-c3cc(S(=O)(=O)N[C@H]4CC[C@H](O)CC4)ccc3C)cnc2N)n1` .
Completion: 6.38 µM

Prompt: Now consider Cc1cc(-c2nc(-c3cc(S(=O)(=O)NCC4CCOC4)ccc3C)cnc2N)ccn1 (stereo not shown) .
Completion: > 10 µM

====

- TARGET OR TEST SYSTEM: PI 3-kinase delta (Homo sapiens)
- EXPERIMENT SUMMARY: Cellular assay J1, p-Akt (S473) in Rat-1 cells, Surefire format
- Assay type: cell-based
- RUN CONDITIONS: non-asterisked data: version J1 (Surefire format), Rat-1 cells; read-out: Assay J PI3Kδ IC50
- Sequence (O00329 whole entry): as the sequence (O00329 whole entry) above
- Sequence (Q63787 whole entry partner): as the sequence (Q63787 whole entry partner) above
MEASUREMENT KIND: IC50 (nM)
Write the value in nM as a bare number.

Prompt: Which IC50 is listed for CCc1noc(-c2nc(-c3cc(S(=O)(=O)NCCC(C)(C)O)ccc3C)cnc2N)n1 [Example 136] ?
Completion: 1120

Prompt: Now consider Cc1ccc(S(=O)(=O)NCC(C)(C)O)cc1-c1cnc(N)c(-n2cnc(C3CC3)n2)n1 [Example 109] .
Completion: 1900

Prompt: Now consider Cc1ccc(S(=O)(=O)NCCC(C)(C)O)cc1-c1cnc(N)c(-c2cnn(Cc3cccnc3)c2)n1 [Example 119.38] .
Completion: 1030

Prompt: Now consider Cc1ccc(S(=O)(=O)NC2CC3(CC(O)C3)C2)cc1-c1cnc(N)c(-n2cncn2)n1 (single isomer, unassigned) [Example 70a] .
Completion: 1410

Prompt: Now consider Cc1cn(-c2nc(-c3cc(S(=O)(=O)N[C@H]4CC[C@H](O)CC4)ccc3C)cnc2N)cn1 [Example 56] .
Completion: 3120

Prompt: Now consider Cc1ccc(S(=O)(=O)NCCC(C)(C)O)cc1-c1cnc(N)c(-c2ccoc2)n1 [Example 119.15] .
Completion: 1650

====

- TARGET OR TEST SYSTEM: PI 3-kinase alpha (Homo sapiens, UniProt P42336)
- EXPERIMENT SUMMARY: Cellular assay H1, p-Akt (S473) in Rat-1 cells, Surefire format
- Format: cell-based
MEASUREMENT KIND: pIC50
Lab note — pIC50 values are minus log10 of concentrations in M.

Prompt: I'm curious: which pIC50 was measured for `Cc1ccc(S(=O)(=O)NC2CCOCC2)cc1-c1cnc(N)c(-n2cncn2)n1` tested on PI 3-kinase alpha (Homo sapiens, UniProt P42336)?
Completion: 5.55
